- Procedure text: Inhibition of AAPH-induced linoleic acid lipid peroxidation
- Format: physicochemical
Measured endpoint: IC50 (µM)

Study these solved cases before continuing.
COc1ccccc1C1=Nc2c(O)cccc2NC(C)(c2ccccc2OC)C1 (stereo unspecified)
46
CC1(c2cccc([N+](=O)[O-])c2)CC(c2cccc([N+](=O)[O-])c2)=Nc2c(O)cccc2N1 (stereo unspecified)
46
COc1cccc(C2=Nc3c(O)cccc3NC(C)(c3cccc(OC)c3)C2)c1 (stereo unspecified)
60
CC1=Nc2c(O)cccc2NC(C)(C)C1
77

P = CC1(c2ccc(Cl)cc2)CC(c2ccc(Cl)cc2)=Nc2c(N)cccc2O1 (stereo unspecified)
Q = CC1=Nc2c(N)cccc2OC(C)(C)C1
R = CC1(c2ccc(Cl)cc2)CC(c2ccc(Cl)cc2)=Nc2c(O)cccc2N1 (stereo unspecified)
Lookup: Please list the entries, largest IC50 first. Answer by naming the labels in the order asked.
Found: Q, P, R
(Q: 70 µM, P: 47.5 µM, R: 2.5 µM)
